Just for reference, patent US11192889B2 is where these values come from.

molecular target: HEK-293-αVβ3 cells (Homo sapiens, UniProt P05106+P06756); test: AP5 Binding Assay; assay type: cell-based; details: @10 μM; relative to AP5 expression induced by cilengitide; read-out: AP5 expression induced at the highest concentration
Sequence (P05106 whole entry): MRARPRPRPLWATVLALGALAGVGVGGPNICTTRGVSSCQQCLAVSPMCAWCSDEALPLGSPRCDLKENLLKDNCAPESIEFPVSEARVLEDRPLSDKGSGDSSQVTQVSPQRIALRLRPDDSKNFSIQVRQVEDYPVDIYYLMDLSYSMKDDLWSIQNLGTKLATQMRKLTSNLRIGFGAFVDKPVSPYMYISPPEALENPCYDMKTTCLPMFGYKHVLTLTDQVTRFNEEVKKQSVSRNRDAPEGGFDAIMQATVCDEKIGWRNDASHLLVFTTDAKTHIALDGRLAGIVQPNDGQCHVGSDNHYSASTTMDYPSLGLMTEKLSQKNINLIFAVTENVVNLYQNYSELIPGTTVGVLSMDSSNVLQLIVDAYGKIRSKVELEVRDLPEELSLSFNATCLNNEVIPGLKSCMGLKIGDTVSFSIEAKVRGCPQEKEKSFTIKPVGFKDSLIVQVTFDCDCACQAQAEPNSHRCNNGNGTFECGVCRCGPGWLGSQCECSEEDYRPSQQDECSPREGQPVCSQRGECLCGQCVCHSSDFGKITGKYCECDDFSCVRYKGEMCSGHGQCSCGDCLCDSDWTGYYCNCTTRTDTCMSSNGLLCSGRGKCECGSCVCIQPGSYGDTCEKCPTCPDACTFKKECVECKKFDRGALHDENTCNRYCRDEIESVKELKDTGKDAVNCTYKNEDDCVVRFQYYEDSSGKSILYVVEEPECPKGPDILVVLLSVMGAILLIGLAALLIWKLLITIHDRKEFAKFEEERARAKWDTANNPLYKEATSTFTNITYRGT
Sequence (P06756 whole entry): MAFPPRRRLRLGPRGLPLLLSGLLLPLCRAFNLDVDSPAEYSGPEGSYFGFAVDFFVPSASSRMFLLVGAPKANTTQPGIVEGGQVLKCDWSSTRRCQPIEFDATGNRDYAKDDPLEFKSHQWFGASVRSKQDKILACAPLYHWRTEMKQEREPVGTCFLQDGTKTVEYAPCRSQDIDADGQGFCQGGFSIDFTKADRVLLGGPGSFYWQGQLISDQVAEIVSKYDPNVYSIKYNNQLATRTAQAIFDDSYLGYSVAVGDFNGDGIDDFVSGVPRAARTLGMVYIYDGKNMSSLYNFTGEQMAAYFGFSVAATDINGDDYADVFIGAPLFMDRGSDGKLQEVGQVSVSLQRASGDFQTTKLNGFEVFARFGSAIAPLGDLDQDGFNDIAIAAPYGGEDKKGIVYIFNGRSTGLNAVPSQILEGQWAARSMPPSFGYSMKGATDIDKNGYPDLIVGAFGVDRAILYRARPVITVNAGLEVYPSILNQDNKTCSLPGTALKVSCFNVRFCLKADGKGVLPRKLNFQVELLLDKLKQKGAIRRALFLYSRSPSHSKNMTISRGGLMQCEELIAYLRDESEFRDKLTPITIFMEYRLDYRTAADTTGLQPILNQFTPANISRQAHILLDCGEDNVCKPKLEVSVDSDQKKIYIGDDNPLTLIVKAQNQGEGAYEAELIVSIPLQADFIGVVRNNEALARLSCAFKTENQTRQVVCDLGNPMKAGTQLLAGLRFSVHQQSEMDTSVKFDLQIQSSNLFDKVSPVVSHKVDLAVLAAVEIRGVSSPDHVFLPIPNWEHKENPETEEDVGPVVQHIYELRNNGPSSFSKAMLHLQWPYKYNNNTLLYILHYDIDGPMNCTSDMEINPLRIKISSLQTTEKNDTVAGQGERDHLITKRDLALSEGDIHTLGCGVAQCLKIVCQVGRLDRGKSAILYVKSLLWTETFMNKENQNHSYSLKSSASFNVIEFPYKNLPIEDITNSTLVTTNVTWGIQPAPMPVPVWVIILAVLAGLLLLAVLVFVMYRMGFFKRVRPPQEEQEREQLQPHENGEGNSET
I'd be grateful if you could share measured activation at 10 µM for these entries.
Note: unit % is implicit; provide only the numeric part.

Consider the compound CC1(C)[C@@H]2CC[C@]1(CS(=O)(=O)NC(CCNC(=O)CCCCc1ccc3c(n1)NCCC3)C(=O)O)C(=O)C2 (stereo partly shown) and give its measured activation at 10 µM.
16

Consider the compound O=C(CCCCc1nc2c(cc1C1CC1)CCCN2)NCCC(NC(=O)OCc1ccccc1)C(=O)O (stereo not shown) and give its measured activation at 10 µM.
12

Consider the compound O=C(CCCCc1ccc2c(n1)NCCC2)NCCC(C(=O)O)c1cnc2ccccc2c1 (stereo not shown) and give its measured activation at 10 µM.
31

Consider the compound O=C(CCCCc1ccc2c(n1)NCCC2)NCCC(NC(=O)OCC(F)(F)C(F)(F)F)C(=O)O (stereo not shown) and give its measured activation at 10 µM.
12

Consider the compound O=C(CCCCc1ccc2c(n1)NCCC2)NCC[C@@H](Nc1nc2ccccc2o1)C(=O)O and give its measured activation at 10 µM.
5

Consider the compound O=C(CCCCc1ccc2c(n1)NCCC2)NCC[C@@H](NC(=O)OCc1ccccc1)C(=O)O and give its measured activation at 10 µM.
5

Consider the compound O=C(CCCCc1ccc2c(n1)NCCC2)NCCC(C(=O)O)c1ccc(Oc2ccccc2)nc1 (stereo not shown) and give its measured activation at 10 µM.
7.5

Consider the compound O=C(CCCCc1ccc2c(n1)NCCC2)NCCC(NC(=O)OCC1CCC(F)(F)CC1)C(=O)O (stereo not shown) and give its measured activation at 10 µM.
21

Consider the compound CC(C)COC(=O)NC(CCNC(=O)CCCCc1ccc2c(n1)NCCC2)C(=O)O (stereo not shown) and give its measured activation at 10 µM.
20

Consider the compound O=C(CCCCc1ccc2c(n1)NCCC2)NCCC(C(=O)O)n1cc(-c2ccccc2)nn1 (stereo not shown) and give its measured activation at 10 µM.
9

Consider the compound O=C(CCCCc1ccc2c(n1)NCCC2)NCCC(NC(=O)CO)C(=O)O (stereo not shown) and give its measured activation at 10 µM.
32

Consider the compound COc1ccccc1COC(=O)NC(CCNC(=O)CCCCc1ccc2c(n1)NCCC2)C(=O)O (stereo not shown) and give its measured activation at 10 µM.
16

Consider the compound O=C(CCCCc1ccc2c(n1)NCCC2)NCCC(NC(=O)c1nc2ccccc2n1CC1CC1)C(=O)O (stereo not shown) and give its measured activation at 10 µM.
2.5

Consider the compound O=C(CCCCc1ccc2c(n1)NCCC2)NCCC(Nc1ncc(-c2ccccc2)cn1)C(=O)O (stereo not shown) and give its measured activation at 10 µM.
9

Consider the compound O=C(CCCCc1ccc2c(n1)NCCC2)NCCC(NC(=O)OCCc1ccccc1)C(=O)O (stereo not shown) and give its measured activation at 10 µM.
14

Consider the compound O=C(CCCCc1ccc2c(n1)NCCC2)NCCC(NC(=O)c1ncc(-c2ccccc2)s1)C(=O)O (stereo not shown) and give its measured activation at 10 µM.
6

Consider the compound O=C(CCCCc1ccc2c(n1)NCCC2)NCCC(C(=O)O)c1ccccc1 (stereo not shown) and give its measured activation at 10 µM.
11

Consider the compound O=C(CCCCc1ccc2c(n1)NCCC2)NCCC(NC(=O)c1ccccn1)C(=O)O (stereo not shown) and give its measured activation at 10 µM.
16

Consider the compound O=C(CCCCc1ccc2c(n1)NCCC2)NCCC(NC(=O)OCc1cccc(F)c1)C(=O)O (stereo not shown) and give its measured activation at 10 µM.
12

Consider the compound O=C(CCCCc1nc2c(cc1C1CC1)CCCN2)NCCC(Nc1nc2ccccc2o1)C(=O)O (stereo not shown) and give its measured activation at 10 µM.
5

Consider the compound COC(=O)NC(CCNC(=O)CCCCc1ccc2c(n1)NCCC2)C(=O)O (stereo not shown) and give its measured activation at 10 µM.
12

Consider the compound O=C(CCCCc1ccc2c(n1)NCCC2)NCCC(Nc1nc2ccccc2o1)C(=O)O (stereo not shown) and give its measured activation at 10 µM.
7

Consider the compound COC(=O)[C@H](CCNC(=O)CCCCc1ccc2c(n1)NCCC2)NC(=O)OCc1ccccc1 and give its measured activation at 10 µM.
19

Consider the compound O=C(CCCCc1ccc2c(n1)NCCC2)NCCC(C(=O)O)n1cnc(-c2ccccc2)n1 (stereo not shown) and give its measured activation at 10 µM.
10

Consider the compound O=C(CCCCc1ccc2c(n1)NCCC2)NCCC(NC(=O)OCc1ccc(F)cc1)C(=O)O (stereo not shown) and give its measured activation at 10 µM.
13
